Assay: Cytotoxicity in Calu-3 cells without virus (XTT)
Settings: human, CC50, Calu‐3 cells, no virus, three days
measure: CC50 at 3 days

What the record says about CCC(CC)COC(=O)[C@H](C)N[P@](=O)(OC[C@H]1O[C@@](C#N)(c2ccc3c(N)ncnn23)[C@H](O)[C@@H]1O)Oc1ccccc1 [Remdesivir, remdesivir, reference compound] : CC50 at 3 days is > 3.2 µM

* * *

# remaining activity at 10 µM annotations
Target: SARS‐CoV‐2 RdRp complex (nsp12, nsp7, nsp8) (Severe acute respiratory syndrome coronavirus 2)
Experiment: Fluorescence-based RdRp polymerase assay (SYBR Green I RNA extension)
Assay type: biochemical
Conditions: 50 min, read-out: residual activity (RA) of the SARS‐CoV‐2 RdRp complex
Form entry: value (%) — number only.

Solved entries:
Per the records, this compound ( O=C(Nc1ccc(C(=O)O)cc1)Nc1cccc([N+](=O)[O-])c1 [Compound 34] ) has remaining activity at 10 µM equal to 100

O=C(Cc1ccc([N+](=O)[O-])cc1)Nc1cc(Cl)cc(Cl)c1 [Compound 49] yielded remaining activity at 10 µM of 100

remaining activity at 10 µM recorded for this compound, CC(=O)c1cccc(NC(=O)Nc2cc(C(=O)OC(C)C)cc(C(=O)OC(C)C)c2)c1 [Compound 28] , is 100

New cases:
Reported remaining activity at 10 µM ( O=[N+]([O-])c1cccc(NC(=S)Nc2ccc(Cl)c(C(F)(F)F)c2)c1 [Compound 43] ) = 77

Record COC(=O)c1cc(NC(=O)Nc2ccc(C#N)cc2)cc(C(=O)OC)c1 [Compound 7] . Reported remaining activity at 10 µM: 100

Sure, the documented remaining activity at 10 µM for O=C(Nc1cccc([N+](=O)[O-])c1)Nc1ccccc1Cc1ccccc1 [Compound 31] is 78

Per the record, O=C(Nc1cccc([N+](=O)[O-])c1)Nc1ccc(Cl)c(C(F)(F)F)c1 [Compound 29] has remaining activity at 10 µM of 58

Lookup result for CCNS(=O)(=O)c1ccc(NC(=O)Nc2cccc([N+](=O)[O-])c2)cc1 [Compound 35] ; measured remaining activity at 10 µM: 100

* * *

Biological target: SARS‐CoV‐2 RdRp complex (nsp12, nsp7, nsp8) (Severe acute respiratory syndrome coronavirus 2, UniProt P0DTD1)
Assay: Fluorescence-based RdRp polymerase assay (SYBR Green I RNA extension)
Format: biochemical
Settings: 50 min, read-out: residual activity (RA) of the SARS‐CoV‐2 RdRp complex
measure: remaining activity at 10 µM (%)
Return type: number; implicit unit %.

Notebook: O=C(Nc1cc(Cl)cc(Cl)c1)Nc1cccc(C(F)(F)F)c1 , remaining activity at 10 µM read as 45

The recorded remaining activity at 10 µM for entry O=[N+]([O-])c1cccc(NC(=S)Nc2ccccc2Cc2ccccc2)c1 equals 100

* * *

Recorded measurements of CC50 at 3 days, one per entry
Experiment: in vitro
Details: human
Numbers only; they are read as µM.

Illustrative cases are given below, each with its answer.
// FC(F)(F)c1cccc(Nc2nc3cc(Cl)c(Cl)cc3[nH]2)c1 [Compound 56] : CC50 at 3 days value = 43

Per the record, O=C(Nc1cccc(C(F)(F)F)c1)Nc1nc2cc(Cl)c(Cl)cc2[nH]1 [Compound 59] has CC50 at 3 days of 23

For record O=C(Nc1cc(Cl)cc(Cl)c1)Nc1nc2ccc(C(F)(F)F)cc2[nH]1 [Compound 60] the listed CC50 at 3 days is 0.65

Memo: FC(F)(F)c1ccc2nc(-c3nc4cc(Cl)c(Cl)cc4[nH]3)[nH]c2c1 [Compound 55] , reported CC50 at 3 days: 2.1

Entry O=C(Nc1cccc([N+](=O)[O-])c1)Nc1cc(C(F)(F)F)cc(C(F)(F)F)c1 [Compound 19] — recorded CC50 at 3 days = 3.4

Record CC(C)OC(=O)c1cc(NC(=O)Nc2cccc([N+](=O)[O-])c2)cc(C(=O)OC(C)C)c1 [Compound 1] . Reported CC50 at 3 days: 23

CC50 at 3 days reading for COC(=O)c1cc(NC(=O)Nc2cccc(C(F)(F)F)c2)cc(C(=O)OC)c1 [Compound 9] : 10.6

Reported CC50 at 3 days for COC(=O)c1cc(NC(=O)Nc2cc(C(F)(F)F)cc(C(F)(F)F)c2)cc(C(=O)OC)c1 [Compound 11] was 5.1

Kindly review the next molecule as well.
Entry O=C(Nc1cc(Cl)cc(Cl)c1)Nc1cccc(C(F)(F)F)c1 [Compound 47] — recorded CC50 at 3 days = 0.49

FYI, the data here is from paper PMC11617668.
